Would you mind telling me the reported Ratio IC50 of each entry?
# Organism: Rattus norvegicus
# test method notes: Selectivity ratio of IC50 for BuchE in rat serum to IC50 for AchE in rat cortex
# Format: cell-free
One number for each entry.

# molecule, numeric value
data = [
    ("COc1cc2c(cc1OC)C(=O)C(Oc1ccc(C(=O)CCN3CCCC3)cc1)C2 (centres undefined)", 1450),
    ("COc1cc2c(cc1OC)C(=O)C(Oc1ccc(CCN3CCCCC3)cc1)C2 (centres undefined)", 102),
    ("COc1cc2c(cc1OC)C(=O)C(Oc1ccc(C(=O)CCN3CCCCC3)cc1)C2 (centres undefined)", 187),
]

// next item, Ratio IC50 requested
Request: I am curious: what Ratio IC50 value has been reported for COc1cc2c(cc1OC)C(=O)C(Oc1ccc(CCCCN3CCCC3)cc1)C2 (centres undefined) ?
Result: 7.76

###

# measurement target: Butyrylcholinesterase (Rattus norvegicus, UniProt Q9JKC1)
# Sequence (Q9JKC1 whole entry): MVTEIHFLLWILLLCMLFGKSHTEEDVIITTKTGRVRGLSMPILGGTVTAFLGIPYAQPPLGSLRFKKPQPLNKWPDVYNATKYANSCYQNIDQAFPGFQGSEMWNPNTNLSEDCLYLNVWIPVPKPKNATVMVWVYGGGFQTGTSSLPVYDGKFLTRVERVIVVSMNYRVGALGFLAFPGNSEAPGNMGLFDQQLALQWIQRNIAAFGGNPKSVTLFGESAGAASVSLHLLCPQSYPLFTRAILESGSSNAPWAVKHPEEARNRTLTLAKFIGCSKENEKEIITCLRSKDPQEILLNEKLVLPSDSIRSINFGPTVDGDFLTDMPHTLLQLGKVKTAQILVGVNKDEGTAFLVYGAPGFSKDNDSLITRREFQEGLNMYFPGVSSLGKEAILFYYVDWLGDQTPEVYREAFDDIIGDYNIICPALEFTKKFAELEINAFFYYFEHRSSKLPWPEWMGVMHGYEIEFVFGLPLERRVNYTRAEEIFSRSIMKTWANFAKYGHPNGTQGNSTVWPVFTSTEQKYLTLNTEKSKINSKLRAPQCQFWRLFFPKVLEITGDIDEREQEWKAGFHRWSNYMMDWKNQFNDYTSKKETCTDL
# test method notes: Inhibition of BuchE in rat serum by Ellman's method
Would you mind telling me the reported pIC50 of each entry?
Give bare numbers, as −log10 of the molar value.

# compound, pIC50
records = [
    ("COc1cc2c(cc1OC)C(=O)C(Oc1ccc(C(=O)CCCN3CCCC3)cc1)C2 (stereo unspecified)", 5.53),
    ("CCN(CC)CCc1ccc(OC2Cc3cc(OC)c(OC)cc3C2=O)cc1 (stereo unspecified)", 4.78),
    ("COc1cc2c(cc1OC)C(=O)C(Oc1ccc(C(=O)CN3CCCCC3)cc1)C2 (stereo unspecified)", 5.78),
    ("COc1cc2c(cc1OC)C(=O)C(Oc1ccc(C(=O)CCN3CCCCC3)cc1)C2 (stereo unspecified)", 5.49),
]

Please give pIC50, item by item, for the list that follows.
1. CCN(CC)CCC(=O)c1cccc(OC2Cc3cc(OC)c(OC)cc3C2=O)c1 (stereo unspecified)
2. CCN(CC)CC(=O)c1ccc(OC2Cc3cc(OC)c(OC)cc3C2=O)cc1 (stereo unspecified)
3. CCN(C)CCCC(=O)c1ccc(OC2Cc3cc(OC)c(OC)cc3C2=O)cc1 (stereo unspecified)
4. COc1cc2c(cc1OC)C(=O)C(Oc1ccc(C(=O)CCN3CCCC3)cc1)C2 (stereo unspecified)
5. COc1cc2c(cc1OC)C(=O)C(Oc1ccc(CCN3CCCC3)cc1)C2 (stereo unspecified)
6. COc1cc2c(cc1OC)C(=O)C(Oc1ccc(CCN3CCCCC3)cc1)C2 (stereo unspecified)

Result:
[5.82, 5.61, 4.57, 5.22, 4.52, 5.29]

Please give pIC50, item by item, for the list that follows.
1. CCN(C)CCc1ccc(OC2Cc3cc(OC)c(OC)cc3C2=O)cc1 (stereo unspecified)
2. COc1cc2c(cc1OC)C(=O)C(Oc1ccc(CCCCN3CCCC3)cc1)C2 (stereo unspecified)
3. COc1cc2c(cc1OC)C(=O)C(Oc1ccc(C(=O)CCCN3CCCCC3)cc1)C2 (stereo unspecified)
4. CCN(CC)CCc1cccc(OC2Cc3cc(OC)c(OC)cc3C2=O)c1 (stereo unspecified)

Result:
[4.66, 5.49, 5.05, 4.95]

###

Would you mind telling me the reported pIC50 of each entry?
# measurement target: Butyrylcholinesterase (Rattus norvegicus)
# test method notes: Inhibition of BuchE in rat serum by Ellman's method
Numbers only, as −log10 of the molar value.

Worked cases, answers included:
# molecule, pIC50
data = [
    ("COc1cc2c(cc1OC)C(=O)C(Oc1ccc(CCCN3CCCC3)cc1)C2 (configuration not stated)", 5.63),
    ("CCN(CC)CCCCc1ccc(OC2Cc3cc(OC)c(OC)cc3C2=O)cc1 (configuration not stated)", 5.49),
    ("CCN(CC)CCCc1ccc(OC2Cc3cc(OC)c(OC)cc3C2=O)cc1 (configuration not stated)", 5.40),
    ("CCN(C)CC(=O)c1ccc(OC2Cc3cc(OC)c(OC)cc3C2=O)cc1 (configuration not stated)", 6.23),
    ("COc1cc2c(cc1OC)C(=O)C(Oc1cccc(C(=O)CCN3CCCC3)c1)C2 (configuration not stated)", 4.95),
]

Please give pIC50, item by item, for the list that follows.
1. COc1cc2c(cc1OC)C(=O)C(Oc1ccc(CCCN3CCCCC3)cc1)C2 (configuration not stated)
2. COc1cc2c(cc1OC)C(=O)C(Oc1cccc(CCN3CCCCC3)c1)C2 (configuration not stated)

Result:
5.55
5.15

Reference source: ChEMBL document CHEMBL1156564
